System: IL-2 production
Test name: Inhibition of IL-2 production in PHA-activated Jurkat cells (ELISA)
Type: cell-based
Condition notes: Homo sapiens, Jurkat, 20 h, PHA 2.5 μg/mL, IL-2 ELISA
pIC50: −log10 of the molar value.
Measurement label: pIC50

Example results:
{"Chemical string": "O=C(Nc1c(F)cccc1F)c1nc2c(s1)-c1cc(Br)ccc1CCC2", "Measurement label": "pIC50", "Reported result": "7.00 to 7.52"}
{"Chemical string": "N#Cc1cc2c(s1)CCCc1nc(NC(=O)c3c(F)cccc3F)sc1-2", "Measurement label": "pIC50", "Reported result": "< 6.00"}
{"Chemical string": "COc1ccc2c(c1)CCCc1nc(NC(=O)c3c(F)cccc3F)cnc1-2", "Measurement label": "pIC50", "Reported result": "6.30 to 6.60"}
{"Chemical string": "CN1Cc2ccc(Br)cc2-c2sc(NC(=O)c3c(F)cccc3F)nc2C1=O", "Measurement label": "pIC50", "Reported result": "< 6.00"}
{"Chemical string": "O=C1OCc2ccc(Br)cc2-c2sc(NC(=O)c3c(F)cccc3F)nc21", "Measurement label": "pIC50", "Reported result": "< 6.00"}
{"Chemical string": "O=C(Nc1c(F)cccc1F)c1nc2c(s1)-c1cc(O)ccc1CCC2", "Measurement label": "pIC50", "Reported result": "7.00 to 7.52"}
{"Chemical string": "COc1ccc(-c2ccc3c(c2)-c2sc(C(=O)Nc4c(F)cccc4F)nc2CCC3)cn1", "Measurement label": "pIC50", "Reported result": "6.30 to 6.60"}
{"Chemical string": "COc1ccc2c(c1)-c1sc(C(=O)Nc3ccncc3C)nc1CCC2", "Measurement label": "pIC50", "Reported result": "6.30 to 6.60"}

-- ask Using the record for COc1ccc2c(c1)CCCCc1nc(NC(=O)c3c(F)cccc3F)ncc1-2 , report its pIC50.
-- reply < 6.00

-- ask Look at this molecule and give its reported pIC50. COc1ccc2c(c1)-c1sc(NC(=O)c3c(F)cccc3F)nc1CCC2
-- reply 7.00 to 7.52

-- ask Please look up its pIC50: O=C(Nc1nc2c(s1)-c1ccc(-n3ccnc3)cc1CCC2)c1c(F)cccc1F
-- reply 6.60 to 7.00

====

pIC50 for assorted compounds
System: IL-2 production
Test name: Inhibition of IL-2 production in PHA-activated Jurkat cells (ELISA)
Type: cell-based
Condition notes: Homo sapiens, Jurkat, 20 h, PHA 2.5 μg/mL, IL-2 ELISA
Protocol: Jurkat cells were placed in a 96 well plate (0.5 million cells per well in 1% FBS medium) then a test compound of this invention was added at different concentrations. After 10 minutes, the cells were activated with PHA (final concentration 2.5 μg/mL) and incubated for 20 hours at 37° C. under CO2. The final volume was 200 μL. Following incubation, the cells were centrifuged and the supernatants collected and stored at −70° C. prior to assaying for IL-2 production. […]
pIC50: −log10 of the molar value.

Here are 4 compounds together with their reported answers.
{"Chemical string": "Fc1cccc(F)c1NC(=S)c1nc2c(s1)-c1cc(-c3cnco3)ccc1CCC2", "Measurement label": "pIC50", "Reported result": "7.00 to 7.52"}
{"Chemical string": "O=C(Nc1nc2c(s1)-c1ccncc1CCC2)c1c(F)cccc1F", "Measurement label": "pIC50", "Reported result": "7.00 to 7.52"}
{"Chemical string": "CC/N=C(/Nc1c(F)cccc1F)c1nc2c(s1)-c1cc(OC)ccc1CCC2", "Measurement label": "pIC50", "Reported result": "6.60 to 7.00"}
{"Chemical string": "O=C(Nc1ncc2c(n1)CCCc1cnc(-c3cccnc3)nc1-2)c1c(F)cccc1F", "Measurement label": "pIC50", "Reported result": "6.00 to 6.30"}

-- ask For the compound N=C(Nc1c(F)cccc1F)c1nc2c(s1)-c1cc(-c3cnco3)ccc1CCC2 , what pIC50 is on record?
-- reply 6.30 to 6.60

-- ask What does the record list as pIC50 for COc1cccc2c1CCCc1nc(NC(=O)c3ccncc3C)ncc1-2 ?
-- reply < 6.00

-- ask Which pIC50 value belongs to COc1ccc2c(c1)-c1cnc(NC(=O)c3ccncc3C)nc1CCO2 ?
-- reply < 6.00

-- ask Look up pIC50 for this compound: O=C(Nc1c(F)cccc1F)c1nc2c(s1)-c1cc(-c3nnn[nH]3)ccc1CCC2
-- reply < 6.00
